# Tested on: HeLa Kyoto
# Experiment notes: solubility change mitosis vs G1/S (difference of NP-40 vs SDS log2 ratios) (log2 ratio difference); higher = more soluble in mitosis

Item sequence	solubility change mitosis (log2)
MGNLFGRKKQSRVTEQDKAILQLKQQRDKLRQYQKRIAQQLERERALARQLLRDGRKERAKLLLKKKRYQEQLLDRTENQISSLEAMVQSIEFTQIEMKVMEGLQFGNECLNKMHQVMSIEEVERILDETQEAVEYQRQIDELLAGSFTQEDEDAILEELSAITQEQIELPEVPSEPLPEKIPENVPVKARPRQAELVAAS [CHMP6]	0.149
MAAAAELSLLEKSLGLSKGNKYSAQGERQIPVLQTNNGPSLTGLTTIAAHLVKQANKEYLLGSTAEEKAIVQQWLEYRVTQVDGHSSKNDIHTLLKDLNSYLEDKVYLTGYNFTLADILLYYGLHRFIVDLTVQEKEKYLNVSRWFCHIQHYPGIRQHLSSVVFIKNRLYTNSH [EEF1E1]	0.0967
MEAPPVTMMPVTGGTINMMEYLLQGSVLDHSLESLIHRLRGLCDNMEPETFLDHEMVFLLKGQQASPFVLRARRSMDRAGAPWHLRYLGQPEMGDKNRHALVRNCVDIATSENLTDFLMEMGFRMDHEFVAKGHLFRKGIMKIMVYKIFRILVPGNTDSTEALSLSYLVELSVVAPAGQDMVSDDMKNFAEQLKPLVHLEKIDPKRLM [MED18]	-0.161
MVCGGFACSKNCLCALNLLYTLVSLLLIGIAAWGIGFGLISSLRVVGVVIAVGIFLFLIALVGLIGAVKHHQVLLFFYMIILLLVFIVQFSVSCACLALNQEQQGQLLEVGWNNTASARNDIQRNLNCCGFRSVNPNDTCLASCVKSDHSCSPCAPIIGEYAGEVLRFVGGIGLFFSFTEILGVWLTYRYRNQKDPRANPSAFL [TSPAN13]	-0.273

###

# Tested on: HeLa Kyoto
# Experiment notes: solubility change mitosis vs G1/S (difference of NP-40 vs SDS log2 ratios) (log2 ratio difference); higher = more soluble in mitosis

Item sequence	solubility change mitosis (log2)
MGDPERPEAAGLDQDERSSSDTNESEIKSNEEPLLRKSSRRFVIFPIQYPDIWKMYKQAQASFWTAEEVDLSKDLPHWNKLKADEKYFISHILAFFAASDGIVNENLVERFSQEVQVPEARCFYGFQILIENVHSEMYSLLIDTYIRDPKKREFLFNAIETMPYVKKKADWALRWIADRKSTFGERVVAFAAVEGVFFSGSFAAIFWLKKRGLMPGLTFSNELISRDEGLHCDFACLMFQYLVNKPSEERVREIIVDAVKIEQEFLTEALPVGLIGMNCILMKQYIEFVADRLLVELGFSKVFQAENPFDFMENISLEGKTNFFEKRVSEYQRFAVMAETTDNVFTLDADF [RRM2B]	-0.132
MGAPLLSPGWGAGAAGRRWWMLLAPLLPALLLVRPAGALVEGLYCGTRDCYEVLGVSRSAGKAEIARAYRQLARRYHPDRYRPQPGDEGPGRTPQSAEEAFLLVATAYETLKDEETRKDYDYMLDHPEEYYSHYYHYYSRRLAPKVDVRVVILVSVCAISVFQFFSWWNSYNKAISYLATVPKYRIQATEIAKQQGLLKKAKEKGKNKKSKEEIRDEEENIIKNIIKSKIDIKGGYQKPQICDLLLFQIILAPFHLCSYIVWYCRWIYNFNIKGKEYGEEERLYIIRKSMKMSKSQFDSLEDHQKETFLKRELWIKENYEVYKQEQEEELKKKLANDPRWKRYRRWMKNEGPGRLTFVDD [DNAJC25]	0.00727
MASVTRAVFGELPSGGGTVEKFQLQSDLLRVDIISWGCTITALEVKDRQGRASDVVLGFAELEGYLQKQPYFGAVIGRVANRIAKGTFKVDGKEYHLAINKEPNSLHGGVRGFDKVLWTPRVLSNGVQFSRISPDGEEGYPGELKVWVTYTLDGGELIVNYRAQASQATPVNLTNHSYFNLAGQASPNINDHEVTIEADTYLPVDETLIPTGEVAPVQGTAFDLRKPVELGKHLQDFHLNGFDHNFCLKGSKEKHFCARVHHAASGRVLEVYTTQPGVQFYTGNFLDGTLKGKNGAVYPKHSGFCLETQNWPDAVNQPRFPPVLLRPGEEYDHTTWFKFSVA [GALM]	-0.0325
MLSSCVRPVPTTVRFVDSLICNSSRSFMDLKALLSSLNDFASLSFAESWDNVGLLVEPSPPHTVNTLFLTNDLTEEVMEEVLQKKADLILSYHPPIFRPMKRITWNTWKERLVIRALENRVGIYSPHTAYDAAPQGVNNWLAKGLGACTSRPIHPSKAPNYPTEGNHRVEFNVNYTQDLDKVMSAVKGIDGVSVTSFSARTGNEEQTRINLNCTQKALMQVVDFLSRNKQLYQKTEILSLEKPLLLHTGMGRLCTLDESVSLATMIDRIKRHLKLSHIRLALGVGRTLESQVKVVALCAGSGSSVLQGVEADLYLTGEMSHHDTLDAASQGINVILCEHSNTERGFLSDLRDMLDSHLENKINIILSETDRDPLQVV [NIF3L1]	-0.161
MEDGVLKEGFLVKRGHIVHNWKARWFILRQNTLVYYKLEGGRRVTPPKGRILLDGCTITCPCLEYENRPLLIKLKTQTSTEYFLEACSREERDAWAFEITGAIHAGQPGKVQQLHSLRNSFKLPPHISLHRIVDKMHDSNTGIRSSPNMEQGSTYKKTFLGSSLVDWLISNSFTASRLEAVTLASMLMEENFLRPVGVRSMGAIRSGDLAEQFLDDSTALYTFAESYKKKISPKEEISLSTVELSGTVVKQGYLAKQGHKRKNWKVRRFVLRKDPAFLHYYDPSKEENRPVGGFSLRGSLVSALEDNGVPTGVKGNVQGNLFKVITKDDTHYYIQASSKAERAEWIEAIKKLT [PLEK2]	-0.0462
MQAEGRGTGGSTGDADGPGGPGIPDGPGGNAGGPGEAGATGGRGPRGAGAARASGPRGGAPRGPHGGAASAQDGRCPCGARRPDSRLLELHITMPFSSPMEAELVRRILSRDAAPLPRPGAVLKDFTVSGNLLFMSVRDQDREGAGRMRVVGWGLGSASPEGQKARDLRTPKHKVSEQRPGTPGPPPPEGAQGDGCRGVAFNVMFSAPHI [CTAG2]	-0.32
MATGGYRTSSGLGGSTTDFLEEWKAKREKMRAKQNPPGPAPPGGGSSDAAGKPPAGALGTPAAAAANELNNNLPGGAPAAPAVPGPGGVNCAVGSAMLTRAAPGPRRSEDEPPAASASAAPPPQRDEEEPDGVPEKGKSSGPSARKGKGQIEKRKLREKRRSTGVVNIPAAECLDEYEDDEAGQKERKREDAITQQNTIQNEAVNLLDPGSSYLLQEPPRTVSGRYKSTTSVSEEDVSSRYSRTDRSGFPRYNRDANVSGTLVSSSTLEKKIEDLEKEVVRERQENLRLVRLMQDKEEMIGKLKEEIDLLNRDLDDIEDENEQLKQENKTLLKVVGQLTR [PAWR]	0.127
MATHGQTCARPMCIPPSYADLGKAARDIFNKGFGFGLVKLDVKTKSCSGVEFSTSGSSNTDTGKVTGTLETKYKWCEYGLTFTEKWNTDNTLGTEIAIEDQICQGLKLTFDTTFSPNTGKKSGKIKSSYKRECINLGCDVDFDFAGPAIHGSAVFGYEGWLAGYQMTFDSAKSKLTRNNFAVGYRTGDFQLHTNVNDGTEFGGSIYQKVCEDLDTSVNLAWTSGTNCTRFGIAAKYQLDPTASISAKVNNSSLIGVGYTQTLRPGVKLTLSALVDGKSINAGGHKVGLALELEA [VDAC2]	-0.0952
MSEKENNFPPLPKFIPVKPCFYQNFSDEIPVEHQVLVKRIYRLWMFYCATLGVNLIACLAWWIGGGSGTNFGLAFVWLLLFTPCGYVCWFRPVYKAFRADSSFNFMAFFFIFGAQFVLTVIQAIGFSGWGACGWLSAIGFFQYSPGAAVVMLLPAIMFSVSAAMMAIAIMKVHRIYRGAGGSFQKAQTEWNTGTWRNPPSREAQYNNFSGNSLPEYPTVPSYPGSGQWP [SCAMP4]	0.144

###

# Test system: HeLa Kyoto
# Experiment notes: melting temperature (median over replicates), in situ; higher = more thermally stable
# Experimental parameters: cell cycle stage: mitosis
Recorded melting temperature, one value per entry.

Item sequence	melting temperature
MAAAAMAAAAGGGAGAARSLSRFRGCLAGALLGDCVGSFYEAHDTVDLTSVLRHVQSLEPDPGTPGSERTEALYYTDDTAMARALVQSLLAKEAFDEVDMAHRFAQEYKKDPDRGYGAGVVTVFKKLLNPKCRDVFEPARAQFNGKGSYGNGGAMRVAGISLAYSSVQDVQKFARLSAQLTHASSLGYNGAILQALAVHLALQGESSSEHFLKQLLGHMEDLEGDAQSVLDARELGMEERPYSSRLKKIGELLDQASVTREEVVSELGNGIAAFESVPTAIYCFLRCMEPDPEIPSAFNSLQRTLIYSISLGGDTDTIATMAGAIAGAYYGMDQVPESWQQSCEGYEETDILAQSLHRVFQKS [ADPRHL2]	52.5 °C
MAVKKIAIFGATGQTGLTTLAQAVQAGYEVTVLVRDSSRLPSEGPRPAHVVVGDVLQAADVDKTVAGQDAVIVLLGTRNDLSPTTVMSEGARNIVAAMKAHGVDKVVACTSAFLLWDPTKVPPRLQAVTDDHIRMHKVLRESGLKYVAVMPPHIGDQPLTGAYTVTLDGRGPSRVISKHDLGHFMLRCLTTDEYDGHSTYPSHQYQ [BLVRB]	50.7 °C
MSSFSESALEKKLSELSNSQQSVQTLSLWLIHHRKHAGPIVSVWHRELRKAKSNRKLTFLYLANDVIQNSKRKGPEFTREFESVLVDAFSHVAREADEGCKKPLERLLNIWQERSVYGGEFIQQLKLSMEDSKSPPPKATEEKKSLKRTFQQIQEEEDDDYPGSYSPQDPSAGPLLTEELIKALQDLENAASGDATVRQKIASLPQEVQDVSLLEKITDKEAAERLSKTVDEACLLLAEYNGRLAAELEDRRQLARMLVEYTQNQKDVLSEKEKKLEEYKQKLARVTQVRKELKSHIQSLPDLSLLPNVTGGLAPLPSAGDLFSTD [RPRD1B]	50 °C
MAQEVDTAQGAEMRRGAGAARGRASWCWALALLWLAVVPGWSRVSGIPSRRHWPVPYKRFDFRPKPDPYCQAKYTFCPTGSPIPVMEGDDDIEVFRLQAPVWEFKYGDLLGHLKIMHDAIGFRSTLTGKNYTMEWYELFQLGNCTFPHLRPEMDAPFWCNQGAACFFEGIDDVHWKENGTLVQVATISGNMFNQMAKWVKQDNETGIYYETWNVKASPEKGAETWFDSYDCSKFVLRTFNKLAEFGAEFKNIETNYTRIFLYSGEPTYLGNETSVFGPTGNKTLGLAIKRFYYPFKPHLPTKEFLLSLLQIFDAVIVHKQFYLFYNFEYWFLPMKFPFIKITYEEIPLPIRNKTLSGL [CLN5]	53.8 °C
MDLRQFLMCLSLCTAFALSKPTEKKDRVHHEPQLSDKVHNDAQSFDYDHDAFLGAEEAKTFDQLTPEESKERLGKIVSKIDGDKDGFVTVDELKDWIKFAQKRWIYEDVERQWKGHDLNEDGLVSWEEYKNATYGYVLDDPDPDDGFNYKQMMVRDERRFKMADKDGDLIATKEEFTAFLHPEEYDYMKDIVVQETMEDIDKNADGFIDLEEYIGDMYSHDGNTDEPEWVKTEREQFVEFRDKNRDGKMDKEETKDWILPSDYDHAEAEARHLVYESDQNKDGKLTKEEIVDKYDLFVGSQATDFGEALVRHDEF [CALU]	60.3 °C
MVAVLGGRGVLRLRLLLSALKPGIHVPRAGPAAAFGTSVTSAKVAVNGVQLHYQQTGEGDHAVLLLPGMLGSGETDFGPQLKNLNKKLFTVVAWDPRGYGHSRPPDRDFPADFFERDAKDAVDLMKALKFKKVSLLGWSDGGITALIAAAKYPSYIHKMVIWGANAYVTDEDSMIYEGIRDVSKWSERTRKPLEALYGYDYFARTCEKWVDGIRQFKHLPDGNICRHLLPRVQCPALIVHGEKDPLVPRFHADFIHKHVKGSRLHLMPEGKHNLHLRFADEFNKLAEDFLQ [BPHL]	52.4 °C
MCGRTSCHLPRDVLTRACAYQDRRGQQRLPEWRDPDKYCPSYNKSPQSNSPVLLSRLHFEKDADSSERIIAPMRWGLVPSWFKESDPSKLQFNTTNCRSDTVMEKRSFKVPLGKGRRCVVLADGFYEWQRCQGTNQRQPYFIYFPQIKTEKSGSIGAADSPENWEKVWDNWRLLTMAGIFDCWEPPEGGDVLYSYTIITVDSCKGLSDIHHRMPAILDGEEAVSKWLDFGEVSTQEALKLIHPTENITFHAVSSVVNNSRNNTPECLAPVDLVVKKELRASGSSQRMLQWLATKSPKKEDSKTPQKEESDVPQWSSQFLQKSPLPTKRGTAGLLEQWLKREKEEEPVAKRPYSQ [HMCES]	48.4 °C
MGEPQGSMRILVTGGSGLVGKAIQKVVADGAGLPGEDWVFVSSKDADLTDTAQTRALFEKVQPTHVIHLAAMVGGLFRNIKYNLDFWRKNVHMNDNVLHSAFEVGARKVVSCLSTCIFPDKTTYPIDETMIHNGPPHNSNFGYSYAKRMIDVQNRAYFQQYGCTFTAVIPTNVFGPHDNFNIEDGHVLPGLIHKVHLAKSSGSALTVWGTGNPRRQFIYSLDLAQLFIWVLREYNEVEPIILSVGEEDEVSIKEAAEAVVEAMDFHGEVTFDTTKSDGQFKKTASNSKLRTYLPDFRFTPFKQAVKETCAWFTDNYEQARK [TSTA3]	58.2 °C
MSGWADERGGEGDGRIYVGNLPTDVREKDLEDLFYKYGRIREIELKNRHGLVPFAFVRFEDPRDAEDAIYGRNGYDYGQCRLRVEFPRTYGGRGGWPRGGRNGPPTRRSDFRVLVSGLPPSGSWQDLKDHMREAGDVCYADVQKDGVGMVEYLRKEDMEYALRKLDDTKFRSHEGETSYIRVYPERSTSYGYSRSRSGSRGRDSPYQSRGSPHYFSPFRPY [SRSF9]	50.6 °C
MGFGDLKSPAGLQVLNDYLADKSYIEGYVPSQADVAVFEAVSSPPPADLCHALRWYNHIKSYEKEKASLPGVKKALGKYGPADVEDTTGSGATDSKDDDDIDLFGSDDEEESEEAKRLREERLAQYESKKAKKPALVAKSSILLDVKPWDDETDMAKLEECVRSIQADGLVWGSSKLVPVGYGIKKLQIQCVVEDDKVGTDMLEEQITAFEDYVQSMDVAAFNKI [EEF1B2]	50.6 °C
